The reported measurements were obtained from paper PMC9291816.

- assay-overview: Clinical DDI study in healthy adults
- Assay type: in vivo, human
- measurement-context: both, human, plasma, oral, 5 mg
measured-property: Cmax (ng/mL)
Answers are plain numbers, in ng/mL.

Consider the molecule `Cc1cn2nc(-c3cc(=O)n4cc(N5CCNC6(CC6)C5)ccc4n3)cc(C)c2n1` and give its measured Cmax.
78.6

----------
- assay-overview: Clinical DDI study in healthy adults
- Format: in vivo, human
- measurement-context: both, human, plasma, oral, 8 mg
measured-property: Cmax (ng/mL)
Numbers only, in ng/mL.

Dear colleague, I am looking for the recorded Cmax of the following compound: Cc1cn2nc(-c3cc(=O)n4cc(N5CCNC6(CC6)C5)ccc4n3)cc(C)c2n1 [risdiplam, Risdiplam]
113
